Molecular target: Aldo-keto reductase family 1 member C3 (Homo sapiens, UniProt P42330)
Sequence (P42330 whole entry): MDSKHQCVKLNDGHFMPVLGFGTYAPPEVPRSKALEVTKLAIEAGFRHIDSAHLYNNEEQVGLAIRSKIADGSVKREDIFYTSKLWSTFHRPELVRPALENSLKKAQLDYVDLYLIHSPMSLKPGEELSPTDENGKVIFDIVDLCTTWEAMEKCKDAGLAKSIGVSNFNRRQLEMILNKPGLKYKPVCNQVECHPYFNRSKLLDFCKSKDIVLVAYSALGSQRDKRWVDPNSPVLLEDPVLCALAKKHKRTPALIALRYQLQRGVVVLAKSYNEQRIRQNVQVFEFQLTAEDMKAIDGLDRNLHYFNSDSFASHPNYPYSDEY
Assay: 3alpha-Androstanediol Oxidation Inhibition Assay
Conditions: pH 7; 30 °C
pKi: −log10 of the molar value.
OUTCOME MEASURE: pKi

[
  {
    "COMPOUND STRING": "O=C(O)c1ccccc1Nc1cccc(C(F)(F)F)c1",
    "ASSAYED TARGET": "Aldo-keto reductase family 1 member C3 (Homo sapiens, UniProt P42330)",
    "OBSERVED VALUE": 6.85
  }
]
